Target Or Test System: Metabotropic glutamate receptor 5 (Homo sapiens)
Method Description: Positive allosteric modulation of human mGlu5 expressed in HEK293 cells assessed as glutamate-induced calcium mobilization relative to glutamate
Assay type: functional, cell-based
Sequence (P41594 21-1212 limits assumed): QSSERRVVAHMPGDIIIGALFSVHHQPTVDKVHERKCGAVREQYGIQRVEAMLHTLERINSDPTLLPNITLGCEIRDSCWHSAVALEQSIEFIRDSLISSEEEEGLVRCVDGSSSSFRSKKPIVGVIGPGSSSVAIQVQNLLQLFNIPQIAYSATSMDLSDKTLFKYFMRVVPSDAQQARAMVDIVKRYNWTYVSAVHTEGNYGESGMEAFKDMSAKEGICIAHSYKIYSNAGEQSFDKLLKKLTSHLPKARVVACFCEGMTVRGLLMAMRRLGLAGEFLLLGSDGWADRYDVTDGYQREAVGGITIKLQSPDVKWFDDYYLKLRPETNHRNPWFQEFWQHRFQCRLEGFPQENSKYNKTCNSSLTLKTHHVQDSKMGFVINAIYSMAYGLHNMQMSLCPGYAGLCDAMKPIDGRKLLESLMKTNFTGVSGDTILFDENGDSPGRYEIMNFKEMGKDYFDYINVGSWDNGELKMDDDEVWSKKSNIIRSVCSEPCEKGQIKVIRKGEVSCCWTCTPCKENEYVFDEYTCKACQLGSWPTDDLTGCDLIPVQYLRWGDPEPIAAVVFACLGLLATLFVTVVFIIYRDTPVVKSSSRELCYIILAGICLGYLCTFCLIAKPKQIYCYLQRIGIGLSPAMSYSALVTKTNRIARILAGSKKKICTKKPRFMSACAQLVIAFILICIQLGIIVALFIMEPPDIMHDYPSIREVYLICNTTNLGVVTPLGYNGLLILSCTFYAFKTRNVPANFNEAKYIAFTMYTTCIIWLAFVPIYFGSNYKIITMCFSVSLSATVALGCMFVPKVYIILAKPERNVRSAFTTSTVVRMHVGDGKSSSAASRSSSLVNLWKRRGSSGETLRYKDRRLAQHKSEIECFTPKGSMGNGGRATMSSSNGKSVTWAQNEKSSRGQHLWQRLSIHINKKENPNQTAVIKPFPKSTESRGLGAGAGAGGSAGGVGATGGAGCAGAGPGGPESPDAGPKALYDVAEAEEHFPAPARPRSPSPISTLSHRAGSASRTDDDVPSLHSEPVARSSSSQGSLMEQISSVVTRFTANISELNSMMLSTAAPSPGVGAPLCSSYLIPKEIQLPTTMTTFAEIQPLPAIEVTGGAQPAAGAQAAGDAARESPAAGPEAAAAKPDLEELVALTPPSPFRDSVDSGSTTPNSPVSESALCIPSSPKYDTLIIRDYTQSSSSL
Measurement Label: Emax (%)
Report as a plain number; the unit % is understood.

// lookup Emax | system=Metabotropic glutamate receptor 5 (Homo sapiens) | key= Cc1ccc(N2CCn3nc(COc4ccccc4)cc3C2=O)nc1
76

Input O=C1c2cc(COc3ccc(F)cc3)nn2CCN1c1ccc(F)cc1
72

Next record, please: COc1ccc(N2CCn3nc(COc4ccccc4)cc3C2=O)nc1
74

Now this one: O=C1c2cc(COc3ccccc3F)nn2CCN1c1ccc(F)cc1
66

How about O=C1c2cc(COc3ccccc3)nn2CCN1c1ccc(F)cn1 ?
72

What do we get for Cc1ccc(OCc2cc3n(n2)CCN(c2ccc(F)cc2)C3=O)cc1 ?
58

* * *

Target Or Test System: Metabotropic glutamate receptor 5 (Homo sapiens, UniProt P41594)
Method Description: Positive allosteric modulation of human mGlu5 expressed in HEK293 cells assessed as glutamate-induced calcium mobilization
Format: functional, cell-based
Setup Conditions: read-out: EC50
Sequence (P41594 whole entry): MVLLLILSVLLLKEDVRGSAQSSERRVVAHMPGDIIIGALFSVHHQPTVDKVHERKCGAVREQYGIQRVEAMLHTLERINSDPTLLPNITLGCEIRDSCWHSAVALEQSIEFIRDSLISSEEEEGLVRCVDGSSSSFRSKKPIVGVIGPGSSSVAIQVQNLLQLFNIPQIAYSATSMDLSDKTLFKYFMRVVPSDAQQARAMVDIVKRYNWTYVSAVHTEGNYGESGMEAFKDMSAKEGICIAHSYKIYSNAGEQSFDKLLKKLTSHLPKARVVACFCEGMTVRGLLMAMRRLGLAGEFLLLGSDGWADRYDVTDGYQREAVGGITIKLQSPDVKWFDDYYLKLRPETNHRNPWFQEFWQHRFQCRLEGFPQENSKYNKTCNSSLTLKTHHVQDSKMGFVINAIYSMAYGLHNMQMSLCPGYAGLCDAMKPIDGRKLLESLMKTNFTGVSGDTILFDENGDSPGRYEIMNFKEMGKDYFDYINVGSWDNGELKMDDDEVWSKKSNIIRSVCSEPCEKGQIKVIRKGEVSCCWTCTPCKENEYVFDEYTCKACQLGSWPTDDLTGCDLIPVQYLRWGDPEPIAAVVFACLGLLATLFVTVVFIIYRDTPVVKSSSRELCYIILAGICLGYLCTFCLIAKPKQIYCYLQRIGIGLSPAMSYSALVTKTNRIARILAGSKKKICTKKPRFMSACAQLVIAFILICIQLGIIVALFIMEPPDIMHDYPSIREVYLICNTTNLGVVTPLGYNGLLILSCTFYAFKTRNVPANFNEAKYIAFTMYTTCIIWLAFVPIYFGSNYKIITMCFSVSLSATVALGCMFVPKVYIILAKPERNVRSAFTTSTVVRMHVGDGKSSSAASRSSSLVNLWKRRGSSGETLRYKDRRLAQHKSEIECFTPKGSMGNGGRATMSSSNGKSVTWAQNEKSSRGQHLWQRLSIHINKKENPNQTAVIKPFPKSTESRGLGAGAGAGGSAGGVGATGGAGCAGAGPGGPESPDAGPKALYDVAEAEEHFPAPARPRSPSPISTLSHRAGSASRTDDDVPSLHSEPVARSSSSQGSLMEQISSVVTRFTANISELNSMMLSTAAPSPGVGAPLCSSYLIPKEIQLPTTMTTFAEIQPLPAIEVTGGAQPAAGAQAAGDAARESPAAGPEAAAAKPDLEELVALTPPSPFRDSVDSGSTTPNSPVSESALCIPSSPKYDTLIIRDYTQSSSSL
Exercise: state measured EC50 for each of the molecules provided.
Hi! Could you send only the number? It should be in nM, unit omitted.

Checklist item: EC50 tested on Metabotropic glutamate receptor 5 (Homo sapiens, UniProt P41594), entry O=C1c2cc(COc3ccccc3)nn2CCN1c1ccc(F)cc1 , value?
65

Now the molecule O=C1c2cc(COc3ccccn3)nn2CCN1c1ccc(F)cc1
490

Thanks! And Cc1ccc(N2CCn3nc(COc4ccccc4)cc3C2=O)cc1 ?
71

Next: COc1ccc(N2CCn3nc(COc4ccccc4)cc3C2=O)cc1
110

Another molecule to look at: Cc1c(COc2ccccc2)nn2c1C(=O)N(c1ccc(F)cc1)CC2
1230

Then this molecule: O=C1c2cc(COc3ccccc3)nn2CCN1c1ccc(F)cc1F
100

Now consider O=C1c2cc(COc3cccc(F)c3)nn2CCN1c1ccc(F)cn1 and answer again.
91

// next record O=C1c2cc(OCc3ccccc3)nn2CCN1c1ccc(F)cc1
160

Then O=C1c2cc(COc3ccncc3)nn2CCN1c1ccc(F)cc1 ?
690

Now consider O=C1c2cc(COc3cccnc3)nn2CCN1c1ccc(F)cc1 .
3980

And then O=C1c2cc(COc3ccccc3F)nn2CCN1c1ccc(F)cc1 , what is it?
150

Now the molecule O=C1c2cc(COc3cccc(F)c3)nn2CCN1c1ccc(F)cc1
100

Request: O=C1c2cc(COc3ccccc3)nn2CCN1c1ccccn1
760

And for O=C1c2cc(COc3ccccc3)nn2CCN1c1cccc(F)c1 ?
130

Now consider O=C1c2nc(COc3ccccc3)nn2CCN1c1ccc(F)cc1 and answer again.
2340

Another molecule to look at: O=C1c2cc(COc3ccccc3)nn2CCN1c1ccc(F)cn1
130

Next: Cc1ccc(N2CCn3nc(COc4ccccc4)cc3C2=O)nc1
190

Please answer likewise for CC(Oc1ccccc1)c1cc2n(n1)CCN(c1ccc(F)cc1)C2=O (centres undefined)
7760

Similarly, O=C1c2cc(COc3ccc(F)cc3)nn2CCN1c1ccc(F)cc1 ?
100

Try this molecule next: COc1ccc(N2CCn3nc(COc4ccccc4)cc3C2=O)nc1
620

Similarly, Cc1ccc(OCc2cc3n(n2)CCN(c2ccc(F)cc2)C3=O)cc1 ?
300

What do you get for O=C1c2cc(COc3ccc(F)cn3)nn2CCN1c1ccc(F)cc1 ?
7940
